Tested on: Rat
Test: Behavioral toxicity, rat (po)
Assay type: in vivo
Conditions: po
measurement_label: Rat (po) Tox, TD50

Q: Respond only with Rat (po) Tox, TD50 recorded for COC[C@@H](NC(C)=O)C(=O)NCc1ccc(OCc2cccc(F)c2)cc1 [(R)-10]
Ans: > 280 mg/kg

----------
Please respond with reported TD50 for every item in the list.
Assay: Behavioral toxicity, rat (po)
Assay type: in vivo
Conditions: Sprague-Dawley, in vivo, po, read-out: Rat (po) Tox, TD50

Q: Respond only with TD50 recorded for COCCCc1ccc(CNC(=O)[C@@H](COC)NC(C)=O)cc1 [(R)-7]
Ans: > 500 mg/kg

Q: Respond only with TD50 recorded for COCc1ccc(CNC(=O)[C@@H](COC)NC(C)=O)cc1 [(R)-8]
Ans: > 500 mg/kg

Q: Respond only with TD50 recorded for COC[C@@H](NC(C)=O)C(=O)NCc1ccc(OC(F)(F)F)cc1 [(R)-4]
Ans: > 30 mg/kg

Q: Respond only with TD50 recorded for COC[C@@H](NC(C)=O)C(=O)NCc1ccc(C2(C(F)(F)F)N=N2)cc1 [(R)-9]
Ans: > 30 mg/kg
